# Tested on: SEM cells
# experimental.details: cell viability relative to DMSO control; higher = less cytotoxic
# recorded.conditions: RPMI 5 mM glucose + 10% dialyzed FBS; 48 h; 0.19 µM
outcome.measure: cell viability (%)

[[record]]
compound = "Cn1cc(C[C@@H](N)C(=O)O)c2ccccc21"
test_target = "SEM cells"
unit_text = "%"
numeric_readout = 108

[[record]]
compound = "Cc1c(C)c2c(c(C)c1O)CCC(C)(COc1ccc(CC3SC(=O)NC3=O)cc1)O2 (stereo not drawn)"
test_target = "SEM cells"
unit_text = "%"
numeric_readout = 121

[[record]]
compound = "NC/1=N/C(=O)N(/C=N1)[C@@H]2O[C@H](CO)[C@@H](O)[C@H]2O"
test_target = "SEM cells"
unit_text = "%"
numeric_readout = 93.5

